TESTED_TARGET: UniProtKB P0DTD1
ASSAY_NAME: biochemical
APPLIED_CONDITIONS: IC50 (SARS-CoV-2 3CLpro Inhibition)
pIC50: −log10 of the molar value.

{"COMPOUND": "C=CS(=O)(=O)N1CC[C@@H](C(=O)N(c2ccc(C(C)(C)C)cc2)C(C(=O)NC(C)(C)C)c2cccnc2)C1 (stereo partly drawn)", "TESTED_TARGET": "UniProtKB P0DTD1", "pIC50": "< 4.00"}
{"COMPOUND": "C/C=C/C(=O)N1CCCC1C(=O)N(c1ccc(C(C)(C)C)cc1)C(C(=O)NC(C)(C)C)c1cccnc1 (stereo not drawn) [Compound 8]", "TESTED_TARGET": "UniProtKB P0DTD1", "pIC50": "4.00 to 5.00"}
{"COMPOUND": "C=CC(=O)N1CCC(F)(F)CC1C(=O)N(c1ccc(C(C)(C)C)cc1)C(C(=O)NC(C)(C)C)c1cccnc1 (stereo not drawn)", "TESTED_TARGET": "UniProtKB P0DTD1", "pIC50": "< 4.00"}
{"COMPOUND": "C=CS(=O)(=O)N1CCCC1C(=O)N(c1ccc(C(C)(C)C)cc1)C(C(=O)NC(C)(C)C)c1cccnc1 (stereo not drawn)", "TESTED_TARGET": "UniProtKB P0DTD1", "pIC50": "< 4.00"}
{"COMPOUND": "C=C(C)C(=O)N1CCCC1C(=O)N(c1ccc(C(C)(C)C)cc1)C(C(=O)NC(C)(C)C)c1cccnc1 (stereo not drawn)", "TESTED_TARGET": "UniProtKB P0DTD1", "pIC50": "< 4.00"}
{"COMPOUND": "C/C=C/C(=O)N1CCCC1C(=O)N(c1ccc(C(C)(C)C)cc1)C(C(=O)NC(C)(C)C)c1cccnc1 (stereo not drawn) [Compound 7]", "TESTED_TARGET": "UniProtKB P0DTD1", "pIC50": "5.00 to 6.00"}
{"COMPOUND": "C/C=C(\\C)C(=O)N1CCCC1C(=O)N(c1ccc(C(C)(C)C)cc1)C(C(=O)NC(C)(C)C)c1cccnc1 (stereo not drawn)", "TESTED_TARGET": "UniProtKB P0DTD1", "pIC50": "< 4.00"}
{"COMPOUND": "CCC(=O)N1CCCC1C(=O)N(c1ccc(C(C)(C)C)cc1)C(C(=O)NC(C)(C)C)c1cccnc1 (stereo not drawn)", "TESTED_TARGET": "UniProtKB P0DTD1", "pIC50": "< 4.00"}
{"COMPOUND": "C=CC(=O)N1CC[C@@H](C(=O)N(c2ccc(C(C)(C)C)cc2)C(C(=O)NC(C)(C)C)c2cccnc2)C1 (stereo partly drawn)", "TESTED_TARGET": "UniProtKB P0DTD1", "pIC50": "4.00 to 5.00"}
{"COMPOUND": "C=CC(=O)N1CCC(C(=O)N(c2ccc(C(C)(C)C)cc2)C(C(=O)NC(C)(C)C)c2cccnc2)C1 (stereo not drawn)", "TESTED_TARGET": "UniProtKB P0DTD1", "pIC50": "4.00 to 5.00"}
{"COMPOUND": "C=CC(=O)N1CCCC1C(=O)N(c1ccc(C(C)(C)C)cc1)C(C(=O)NC(C)(C)C)c1cccnc1 (stereo not drawn)", "TESTED_TARGET": "UniProtKB P0DTD1", "pIC50": "< 4.00"}
{"COMPOUND": "C/C=C(\\C)C(=O)N1CCC[C@@H]1C(=O)N(c1ccc(C(C)(C)C)cc1)C(C(=O)NC(C)(C)C)c1cccnc1 (stereo partly drawn)", "TESTED_TARGET": "UniProtKB P0DTD1", "pIC50": "4.00 to 5.00"}

###

TESTED_TARGET: SARS-CoV-2 3CLpro (Severe acute respiratory syndrome coronavirus 2 (2019-nCoV) (SARS-CoV-2))
ASSAY_NAME: biochemical
APPLIED_CONDITIONS: read-out: IC50 (SARS-CoV-2 3CLpro Inhibition)
Reported values of IC50 for individual entries

{"MOLECULE": "C=CC(=O)N1CCCC1C(=O)N(c1ccc(C(C)(C)C)cc1)C(C(=O)NC(C)(C)C)c1cccnc1 (stereo not drawn)", "IC50": "> 100 µM"}
{"MOLECULE": "C=CS(=O)(=O)N1CC[C@@H](C(=O)N(c2ccc(C(C)(C)C)cc2)C(C(=O)NC(C)(C)C)c2cccnc2)C1 (stereo partly drawn)", "IC50": "> 100 µM"}
{"MOLECULE": "C=C(C)C(=O)N1CCCC1C(=O)N(c1ccc(C(C)(C)C)cc1)C(C(=O)NC(C)(C)C)c1cccnc1 (stereo not drawn)", "IC50": "> 100 µM"}
